Biological target: Phosphodiesterase 4 (Homo sapiens, UniProt P27815+Q08499+Q07343+Q08493)
Assay: Inhibition of PDE4
Type: protein assay
Entries whose IC50 is below 4 µM take T; entries at or above 4 µM take F.

Completed entries (count: 3):
COc1cc(N2CCOCC2)cc2c1nnc1c(C)nc(-c3ccccc3Cl)n12 ... T
COc1cccc2c1nnc1c(C)nc(-c3ccccc3Cl)n12 ... T
COc1ccc2nnc3c(C)nc(-c4ccc(F)cc4C)n3c2n1 ... F

hey, is IC50 for COc1ccc2nnc3c(C)nc(-c4cc(Cl)ccc4Cl)n3c2n1 lower than 4 µM or not?
F

Is IC50 strictly under 4 µM for the entry COc1cc(F)cc2c1nnc1c(C)nc(-c3sccc3C)n12 ?
F

----------
Assay: Elimination half life in rat at 2 mg/kg, iv and 10 mg/kg, po
Format: ADME, organism-based
Details: in vivo, read-out: beta t1/2 (converted)
measurement_kind: half-life (h)
Number only, in h; omit the unit.

Below, 3 compounds whose answers are already recorded.
COc1cc(OC)c2nnc3c(C)nc(-c4cccnc4C)n3c2c1 ... 2
COc1cc(OC)c2nnc3c(C)nc(-c4cnccc4C)n3c2c1 ... 0.8
COc1cc(C(F)(F)F)cc2c1nnc1c(C)nc(-c3ccncc3C)n12 ... 4.5

# ---- query compound ----
Fill blank: measured half-life of the compound COc1cc(OC)c2nnc3c(C)nc(-c4ccncc4C)n3c2c1 is ____.
0.9

----------
Biological target: Phosphodiesterase 6
Experiment: Inhibition of PDE6
Format: protein assay, Homo sapiens
measurement_kind: IC50 (nM)
Just the number please, in nM, no unit attached.

COc1cc(C(F)(F)F)cc2c1nnc1c(C)nc(-c3cnccc3C)n12 ... 5250

Can you look up the measured IC50 of COc1cc(OC)c2nnc3c(C)nc(-c4ccncc4C)n3c2c1 for me?
1240

May I ask what IC50 has been recorded for COc1cc(OC)c2nnc3c(C)nc(-c4cnccc4C)n3c2c1 ?
1822

Quick one: IC50 for COc1cc(F)cc2c1nnc1c(C)nc(-c3sccc3C)n12 ?
3270

// IC50 lookup, key: COc1cc(OC)c2nnc3c(C)nc(-c4ccccc4C)n3c2c1
349

What value of measured IC50 is listed for COc1cc(F)cc2c1nnc1c(C)nc(-c3sc(C)nc3C)n12 ?
3880

Could you tell me which IC50 is on file for COc1cc(F)cc2c1nnc1c(C)nc(-c3cccnc3C)n12 ?
2830

----------
Biological target: Phosphodiesterase 6
Test: Inhibition of PDE6
Type: protein assay, Homo sapiens
Response field label: string, one of fulfilled (IC50 strictly below 1 µM) or not fulfilled.

Please check: IC50 for COc1ccccc1-c1nc(C)c2nnc3c(OC)cc(F)cc3n12 , strictly under 1 µM or not?
not fulfilled

----------
Molecular target: Phosphodiesterase 3 (Homo sapiens, UniProt Q14432+Q13370)
Test: Inhibition of PDE3
Assay type: protein assay
# key: entry, value: IC50

COc1cccc2c1nnc1c(C)nc(-c3ccccc3Cl)n12 ... > 10 µM
COc1ccnc2c1nnc1c(C)nc(-c3cccnc3C)n12 ... > 10 µM

Recorded IC50 for COc1cc(F)cc2c1nnc1c(C)nc(-c3c(C)nn(C)c3C)n12 , please?
> 10 µM

Given COc1cc(OC)c2nnc3c(C)nc(-c4cccnc4C)n3c2c1 , state its recorded IC50.
> 10 µM

Reported IC50 for COc1ccc2nnc3c(C)nc(-c4cc(Cl)ccc4Cl)n3c2n1 : what is it?
0.75 µM

Need IC50, item COc1cccc(-c2nc(C)c3nnc4c(OC)cc(F)cc4n23)c1
> 1 µM

Which IC50 value is on record for COc1cc(F)cc2c1nnc1c(C)nc(-c3sc(C)nc3C)n12 ?
> 10 µM

Which IC50 is listed for COc1cc(OC)c2nnc3c(C)nc(-c4ccncc4C)n3c2c1 ?
> 10 µM

Return reported IC50; argument: COc1ccc2nnc3c(C)nc(-c4ccccc4C)n3c2n1
> 5 µM

Which value of IC50 has been reported for COc1cc(F)cc2c1nnc1c(C)nc(-c3cccc(F)c3C)n12 in the records?
> 1 µM

Consider the compound shown here: COc1ccnc2c1nnc1c(C)nc(-c3ccncc3C)n12 What is its recorded IC50?
> 10 µM

----------
Test system: Rattus norvegicus
Experiment: Antipsychotic activity in po dosed rat assessed as reduction of MK801-induced hyperactivity
Type: functional
Parameters: scale not given: the % may be the effect or the level left
measurement_kind: Activity (%)
Note: unit % is implicit; provide only the numeric part.

Some compounds with recorded Activity:
COc1cc(C(F)(F)F)cc2c1nnc1c(C)nc(-c3ccncc3C)n12 ... 40.5
COc1ccnc2c1nnc1c(C)nc(-c3ccncc3C)n12 ... 55.4
COc1cc(OC)c2nnc3c(C)nc(-c4ccncc4C)n3c2c1 ... 71.7
COc1cc(OC)c2nnc3c(C)nc(-c4cccnc4C)n3c2c1 ... 90.2

# returns recorded Activity (system: Rattus norvegicus) for COc1cc(OC)c2nnc3c(C)nc(-c4cnccc4C)n3c2c1
79.9

Find Activity (Rattus norvegicus) for the entry COc1cc(OC)c2nnc3c(C)nc(-c4ccccc4Cl)n3c2c1
70.3

----------
Catalogue of Ratio IC50 values
Organism: Homo sapiens
Assay: Selectivity ratio of IC50 PDE2 to IC50 for human recombinant PDE10A
Answer as a number with no unit attached.

COc1cccc2c1nnc1c(C)nc(-c3ccccc3C)n12 ... 60

Consider the compound shown here: COc1cc(OC)c2nnc3c(C)nc(-c4ccncc4C)n3c2c1 What is its recorded Ratio IC50?
300

----------
Assay: AUC in rat plasma at 2 mg/kg, iv and 10 mg/kg, po
Format: ADME, organism-based
measurement_kind: AUC (ng·h/mL)
I only need the number, in ng·h/mL, no unit after it.

Here's what some known entries look like.
COc1cc(C(F)(F)F)cc2c1nnc1c(C)nc(-c3ccncc3C)n12 ... 1600
COc1cc(OC)c2nnc3c(C)nc(-c4ccncc4C)n3c2c1 ... 18700
COc1cc(OC)c2nnc3c(C)nc(-c4cccnc4C)n3c2c1 ... 21300

Please look at the following compound next.
Quick one: AUC of COc1cc(OC)c2nnc3c(C)nc(-c4cnccc4C)n3c2c1 ?
8790

----------
Molecular target: cGMP-specific 3',5'-cyclic phosphodiesterase (Canis lupus familiaris, UniProt O77746)
Recorded log10 of IC50 by entry
The figures below represent log10 of IC50, where IC50 is stated in µM.

API: value(readout= log10 of IC50, system= cGMP-specific 3',5'-cyclic phosphodiesterase (Canis lupus familiaris, UniProt O77746), query= COc1cc(N2CCOCC2)cc2c1nnc1c(C)nc(-c3ccncc3C)n12 )
0.73

Enter reported log10 of IC50 observed with cGMP-specific 3',5'-cyclic phosphodiesterase (Canis lupus familiaris, UniProt O77746) for COc1cc(OC)c2nnc3c(C)nc(-c4cccnc4C)n3c2c1
0.16

Report log10 of IC50 for COc1cc(OC(F)F)cc2c1nnc1c(C)nc(-c3ccncc3C)n12 tested on cGMP-specific 3',5'-cyclic phosphodiesterase (Canis lupus familiaris, UniProt O77746).
0.60

Form: Entry = COc1ccc2nnc3c(C)nc(-c4ccccc4C)n3c2n1 | System = cGMP-specific 3',5'-cyclic phosphodiesterase (Canis lupus familiaris, UniProt O77746) | log10 of IC50 = ____
0.53

Provide value of log10 of IC50 for this record tested with cGMP-specific 3',5'-cyclic phosphodiesterase (Canis lupus familiaris, UniProt O77746): COc1cccc2c1nnc1c(C)nc(-c3ccccc3C)n12
0.56

Identify the measured log10 of IC50 of COc1ccc2nnc3c(C)nc(-c4ccccc4Cl)n3c2n1 for cGMP-specific 3',5'-cyclic phosphodiesterase (Canis lupus familiaris, UniProt O77746).
0.23

Form entry - test system: cGMP-specific 3',5'-cyclic phosphodiesterase (Canis lupus familiaris, UniProt O77746); read-out: log10 of IC50; molecule: COc1cc(OC)c2nnc3c(C)nc(-c4ccccc4Cl)n3c2c1
-0.36

Requested read-out log10 of IC50, target or system cGMP-specific 3',5'-cyclic phosphodiesterase (Canis lupus familiaris, UniProt O77746), entry COc1ccc2nnc3c(C)nc(-c4ccc(F)cc4C)n3c2n1
1.53

So what log10 of IC50 did COc1cc(N2CCOCC2)cc2c1nnc1c(C)nc(-c3ccccc3Cl)n12 get with cGMP-specific 3',5'-cyclic phosphodiesterase (Canis lupus familiaris, UniProt O77746)?
-0.22

Fill in the recorded log10 of IC50 for this molecule, with cGMP-specific 3',5'-cyclic phosphodiesterase (Canis lupus familiaris, UniProt O77746) as test system: COc1cc(OC)c2nnc3c(C)nc(-c4ccncc4C)n3c2c1
0.69

log10 of IC50 of COc1cc(C(F)(F)F)cc2c1nnc1c(C)nc(-c3cccc(F)c3C)n12 on cGMP-specific 3',5'-cyclic phosphodiesterase (Canis lupus familiaris, UniProt O77746)?
0.33

State its log10 of IC50 on cGMP-specific 3',5'-cyclic phosphodiesterase (Canis lupus familiaris, UniProt O77746): COc1cc(N2CCOCC2)cc2c1nnc1c(C)nc(-c3ccccc3C)n12
-0.19
